Reference source: the nanobody polyreactivity screen of Harvey et al. (2022)

Assay: yeast display, Sf9 membrane polyspecificity reagent, FACS + sequencing; frameworks hold sequencing errors

SEQUENCE CONTENT	polyreactivity (PSR sort gate)
QVQLVESGGGLVQAGGSLRLSCAASGITFKANAMGWYRQAPGKERELVAAIRQNGGDTYYADSVKGRFTISRDNAKNTVYLQMNSLKPEDTAVYYCNARLRGAGGYTFYYWGQGTQVTVSS	high polyreactivity
QVQLVESGVGLVQAGGSLRLSCAASGSIFTYNAMGLYRQAPGKERELVAAISRRGGTTYYADSVKGRITISRDNAMNTVYLKMNSLKPEDTAVYYCNVARHYAVESGFWGPGTQVTVSS	high polyreactivity
QVQLVESGGGLVQAGGSLRLSCAASGYTFVYNAMGWYRQAPGKEREFVAAITWSGTSTRYADSVKGRFTISRDNAKYTVYLQMKSLKPEDTAVYYCAARRRSAQSGSYNHWGQGTQVTVSS	high polyreactivity
QVQLVESGGGLVQAGGSLRLICAASGSIFDVNAMGWYRQAPWKERELVAAISDSGGSTYYADSVKGRFTISRDNAKITVYLQMNSLKPEDTAVYYCNAVWSWYNYDDFDYWGQGTQVTVSS	low polyreactivity
QVQLVESGGGLVQAGGSLRLSCAASGITFTSYVMGWYRQAPGKERELVAAIRWSGGRTYYADSVKGRFTISRDNAKNTVYLQMNSLKPEDTAVYYCNRVTRSHVDYWGQGTQLTVSS	high polyreactivity
QVQLVESGGGLVQAGGSLRLSCAASGFTSWVYAMGWYRPAPGKERELVAAITWSTDDTYYADSVKGRFTISRDNSKNTVYIQINSLKPEDSAVYYCAAQQYTYVETWDGYDYWGQGTQVTVSS	low polyreactivity
